Multiple publications report IC50 for IRAK4 (Homo sapiens (Human)); what follows is a combined list.
measured quantity: IC50 (nM)

INSERT INTO measurements (molecule, result_modifier, recorded_measurement) VALUES
  ('CC(C)(O)c1cc2nn(C3CCN(CC4CCC5(CC4)CCN(C(=O)c4ccc(Cl)c(N6CCC(=O)NC6=O)c4)CC5)CC3)cc2cc1NC(=O)c1cccc(C(F)(F)F)n1', '=', 14),
  ('Cc1cc(Nc2ncc(-c3nc4ccccc4s3)c(N[C@@H]3C[C@H](C(C)(C)O)[C@@H](O)[C@H]3O)n2)ccn1', '=', 16),
  ('O=C(Nc1nc(CCCCCC(=O)N2CCCC2)cn1-c1ccccc1)c1cccc(-c2ccc3[nH]ncc3c2)c1', '<', 50),
  ('CN(C)C1CCC(NC(=O)CCCc2cn(-c3ccccc3)c(NC(=O)c3cccc(-c4cnn(C)c4)c3)n2)CC1 (stereo not drawn)', '<', 50),
  ('COc1cc2nn([C@H]3CC[C@](C)(O)CC3)cc2cc1NC(=O)c1cccc(C2CC2)[n+]1[O-]', '=', 3.7),
  ('O=C1CCC(N2C(=O)c3ccc(OCCN4CCN(Cc5ccc6c(c5)nc(NC(=O)c5cccc(C(F)(F)F)c5)n6-c5ccccc5)CC4)cc3C2=O)C(=O)N1 (stereo not drawn)', '≥', 1000);
